# testName: P-glycoprotein substrates identified in KB-8-5-11 adenocarcinoma cell line, qHTS therapeutic library screen (AID 1346987); further: nearly all actives have a fitted effect of over 65% in size; further: potency means the concentration at half of the fitted maximal effect
# experimentalConditions: KB-8-5-11 (P-gp overexpressing) viability, CellTiter-Glo, 72 h; series mostly up to 44.5 µM
Results filed as inconclusive are left out. The source made the active and inactive calls. The call rests on the fitted dose curve; in most records, active means well fitted inhibition curve with a large enough effect; inconclusive means small, poorly fitted or top-dose-only effect; inactive means flat fitted curve, though single readings scatter.
readoutType: Potency

compound	result
CNCc1ccc(-c2cc(-c3nc(-c4ccc(S(=O)(=O)C(C)C)cc4)cnc3N)on2)cc1	1300 nM (active)
Nc1nc(Nc2ccc(S(N)(=O)=O)cc2)n(C(=S)Nc2c(F)cccc2F)n1	1160 nM (active)
COc1c2c(cc3c1-c1c(cc4c(c1OC)OCO4)CC(C)C(C)C3)OCO2 (centres undefined)	inactive
CC1OC(OC2CCC3(C)C(CCC4(C)C3CC=C3C5CC(C)(C)CCC5(C(=O)OC5OC(CO)C(O)C(O)C5O)CCC34C(=O)O)C2(C)C)C(O)C(O)C1O (centres undefined)	inactive

====

Kindly state max response for each of the entries shown.
# Tested on: HaCat
# testName: Cytotoxic Profiling of Annotated Libraries Using Quantitative High-Throughput Screening (AID 1296008); further: on the % scale 0 is the no-effect control and ±100 the full control effect; nearly all actives have a fitted effect of over 60% in size
# experimentalConditions: Five cell lines viability, CellTiter-Glo ATP luminescence, 48-72 h; active compounds read low
Records with an inconclusive call do not appear. Active and inactive are the calls of the source. Calls follow the shape of the dose curve; as a rule, active = well fitted inhibition curve with a large enough effect; inconclusive = small, poorly fitted or top-dose-only effect; inactive = flat fitted curve, though single readings scatter.

Example compounds with recorded max response:
compound	result
O=C(O)CC1CCC(c2ccc(-c3ccc4nc(C(=O)NCc5ccc(OC(F)(F)F)cc5)cn4c3)cc2)CC1 (centres undefined)	-3.96% (inactive)
CC1(C)CC[C@]2(C(=O)OC3OC(CO)C(O)C(O)C3O)CC[C@]3(C)C(=CCC4[C@@]5(C)CC[C@H](OC6OC(C(=O)O)C(O)C(OC7OC(CO)C(O)C(O)C7O)C6O)C(C)(C)C5CC[C@]43C)C2C1 (some centres undefined)	-1.22% (inactive)
COc1c2c(c(CO)c3c1C(=O)OC3)OC1(C)CCC3(O)C(C)(C)OC(=O)CCC3(C)C1C2 (centres undefined)	-24.1% (inactive)

Now turn to the next compound.
Which measured max response value corresponds to CC(C)c1nnc(-c2ccc(-c3ccccc3)nc2)n1-c1cccc2nonc12 ? 4.99% (inactive)

====

# Tested on: PA-1
# testName: Primary qHTS to identify gynecologic anti-cancer compounds using libraries of approved drugs and bioactive compounds (AID 1345084); further: nearly all actives have a fitted effect of over 55% in size
# experimentalConditions: Gynecologic cancer cell panel viability, ATPlite luminescence, 48 h; series mostly up to 57.5 µM
Inconclusive results are not listed. Calls of active or inactive are those of the source. Calls come from the whole dose curve; as a rule, active = well fitted cell-killing curve with a large enough effect; inconclusive = small, poorly fitted or top-dose-only effect, or effect the other way; inactive = flat fitted curve, though single readings scatter.
Bench note: report the call from 1.0 (active), 0.0 (inactive)

Example results:
compound	assignedLabel
O=C(Nc1ccc(S(=O)(=O)Nc2ccccc2Cl)c(Cl)c1)c1ccccn1	0.0
NC(=O)c1cnc(NCCc2ccc(O)c(Cl)c2)nc1NCc1ccccc1	1.0
CC(=O)O[C@H]1[C@@H](O)[C@H](O[C@H]2[C@@H]3C=CO[C@@H](O[C@H]4O[C@@H](CO)[C@H](O)[C@@H](O)[C@@H]4O)[C@@H]3[C@@]3(CO)O[C@@H]23)O[C@@H](C)[C@@H]1OC(=O)/C=C/c1ccccc1	0.0

Hi, sorry to bother you, what did the test record for NC(=O)[C@H](O[C@@H]1O[C@H](CO)[C@@H](O)[C@H](O)[C@H]1O)c1ccccc1 ? 0.0

Lookup COc1ccc(CNC(=O)c2sc3nc(C)cc(C)c3c2N)cc1 0.0

Lookup C=CC1C(OC2OC(CO)C(O)C(O)C2O)OC=C(C(=O)OC)C1CC1CC(=O)CC(CCc2ccc(O)cc2)O1 (centres undefined) 0.0

Lookup NC(=O)C(CCC(F)(F)F)N(Cc1ccc(-c2ncon2)cc1F)S(=O)(=O)c1ccc(Cl)cc1 (centres undefined) 0.0

Lookup Cn1cc(-c2ccc3nnc(Sc4ccc5nn(C)cc5c4)n3n2)cn1 0.0

Lookup CC(C)O[C@@H]1O[C@H](CO)[C@@H](O)[C@H](O)[C@H]1O 0.0
